Target: T1, TNFR1 (Homo sapiens, UniProt P19438)
T1 chain: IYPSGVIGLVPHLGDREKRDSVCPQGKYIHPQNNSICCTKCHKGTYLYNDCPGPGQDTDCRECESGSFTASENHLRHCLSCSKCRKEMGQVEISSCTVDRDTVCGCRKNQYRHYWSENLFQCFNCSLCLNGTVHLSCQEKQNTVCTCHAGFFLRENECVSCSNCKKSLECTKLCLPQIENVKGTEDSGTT
Test: yeast display SC50
Reported apparent Kd (screen) values for a set of binders

BINDER	ENDPOINT UNIT	apparent Kd (screen)
K27D (designed binder) SMEEEVEKAAKEYEKKKKEAIEKHLEDLKAKDKEAAERFLKELEEAAKEYAKDEAKTMSEEEAKRRAKKYKEKVLLSELSEEEQKEIKEAEEKLVRTILKYVEEAAK	nM	0.956
E42I (designed binder) SMEEEVEKAAKEYEKKKKEAIEKHLEKLKAKDKEAAERFLKILEEAAKEYAKDEAKTMSEEEAKRRAKKYKEKVLLSELSEEEQKEIKEAEEKLVRTILKYVEEAAK	nM	6.43
A46Q (designed binder) SMEEEVEKAAKEYEKKKKEAIEKHLEKLKAKDKEAAERFLKELEEQAKEYAKDEAKTMSEEEAKRRAKKYKEKVLLSELSEEEQKEIKEAEEKLVRTILKYVEEAAK	nM	0.539
M2C (designed binder) SCEEEVEKAAKEYEKKKKEAIEKHLEKLKAKDKEAAERFLKELEEAAKEYAKDEAKTMSEEEAKRRAKKYKEKVLLSELSEEEQKEIKEAEEKLVRTILKYVEEAAK	nM	2.73
E49P (designed binder) SMEEEVEKAAKEYEKKKKEAIEKHLEKLKAKDKEAAERFLKELEEAAKPYAKDEAKTMSEEEAKRRAKKYKEKVLLSELSEEEQKEIKEAEEKLVRTILKYVEEAAK	nM	4.39
K41H (designed binder) SMEEEVEKAAKEYEKKKKEAIEKHLEKLKAKDKEAAERFLHELEEAAKEYAKDEAKTMSEEEAKRRAKKYKEKVLLSELSEEEQKEIKEAEEKLVRTILKYVEEAAK	nM	0.593
E86T (designed binder) SMEEEVEKAAKEYEKKKKEAIEKHLEKLKAKDKEAAERFLKELEEAAKEYAKDEAKTMSEEEAKRRAKKYKEKVLLSELSEEEQKTIKEAEEKLVRTILKYVEEAAK	nM	0.956
A47C (designed binder) SMEEEVEKAAKEYEKKKKEAIEKHLEKLKAKDKEAAERFLKELEEACKEYAKDEAKTMSEEEAKRRAKKYKEKVLLSELSEEEQKEIKEAEEKLVRTILKYVEEAAK	nM	0.49
